As shown below, each of these molecules has a reported concentration at 2 h value.
- test method notes: Tissue levels after 2-hour IV infusion in rats
- Assay type: in vivo, rat
- test settings: rat pancreas; end of 2-hour IV infusion, 10 mg/kg
quantity measured: concentration at 2 h (ng/mL)

input smiles	reading unit	numeric value
NCCC[C@H](N)C(=O)N[C@H](Cc1ccc(C(F)(F)F)cc1)C(=O)Nc1cnc2ccccc2c1	ng/mL	9710
NCCC[C@H](N)C(=O)N[C@H](CCc1ccccc1)C(=O)Nc1cnc2ccccc2c1	ng/mL	1110
NCCC[C@@H](N)C(=O)N[C@H](CCc1ccccc1)C(=O)Nc1cnc2ccccc2c1	ng/mL	5400
